test system: SW480; assay: Antiproliferative activity against human SW480 cells assessed as reduction in cell viability incubated for 24 hrs by CCK-8 assay; assay type: functional, cell-based; conditions: SW480, 24 h
PROPERTY_MEASURED: pIC50
When answering, recall that pIC50 equals minus log10 of the concentration in mol/L, and write that number alone.

Q) Read off the recorded pIC50 for CC(C)[C@]12O[C@H]1[C@@H]1O[C@]13[C@]1(O[C@H]1C[C@H]1C4=C(CC[C@@]13C)C(=O)OC4)[C@@H]2O [TRIPTOLIDE]
A) 7.30

* * *

system: SW480; experiment: Anticancer activity against human SW480 cells assessed as reduction in cell growth incubated for 72 hrs by MTT assay; format: functional, cell-based; conditions: SW480, 72 h
PROPERTY_MEASURED: IC50

Q) Read off the recorded IC50 for `O=C(/C=C/C=C/c1ccc2c(c1)OCO2)N1CCCCC1`
A) < 200 µM

* * *

Hi there, I'd appreciate the recorded pIC50 for every entry that follows.
tested on: HCT-116; test: Antiproliferative activity against human HCT-116 cells assessed as reduction in cell proliferation incubated for 72 hrs by MTS assay; assay type: functional, cell-based; conditions: HCT-116, 72 h
When answering, recall that pIC50 equals minus log10 of the concentration in mol/L, and write that number alone.

Q) Read off the recorded pIC50 for `COc1c(C[C@@H](C)OC(=O)Oc2ccc(O)cc2)c2c3c(C[C@@H](C)OC(=O)c4ccccc4)c(OC)c(=O)c4c(O)cc(OC)c(c5c(OC)cc(O)c(c1=O)c52)c43`
A) 5.54

Q) Read off the recorded pIC50 for `CCCC(=O)c1cc2c(c(O)c1C)C(=O)C(=O)c1c(O)cccc1-2`
A) 6.11

Q) Read off the recorded pIC50 for `COc1c(C[C@@H](C)OC(=O)c2c(C)cc(O)cc2O)c2c3c(C[C@@H](C)OC(=O)c4c(C)cc(O)cc4O)c(OC)c(=O)c4c(O)cc(OC)c(c5c(OC)cc(O)c(c1=O)c52)c43`
A) 5.44

Q) Read off the recorded pIC50 for `Cn1ncnc2c(=O)n(C)c(=O)nc1-2`
A) 5.54

* * *

# collection of pIC50 values tested on Poly [ADP-ribose] polymerase tankyrase-2 (Homo sapiens, UniProt Q9H2K2)
# Sequence (Q9H2K2 whole entry): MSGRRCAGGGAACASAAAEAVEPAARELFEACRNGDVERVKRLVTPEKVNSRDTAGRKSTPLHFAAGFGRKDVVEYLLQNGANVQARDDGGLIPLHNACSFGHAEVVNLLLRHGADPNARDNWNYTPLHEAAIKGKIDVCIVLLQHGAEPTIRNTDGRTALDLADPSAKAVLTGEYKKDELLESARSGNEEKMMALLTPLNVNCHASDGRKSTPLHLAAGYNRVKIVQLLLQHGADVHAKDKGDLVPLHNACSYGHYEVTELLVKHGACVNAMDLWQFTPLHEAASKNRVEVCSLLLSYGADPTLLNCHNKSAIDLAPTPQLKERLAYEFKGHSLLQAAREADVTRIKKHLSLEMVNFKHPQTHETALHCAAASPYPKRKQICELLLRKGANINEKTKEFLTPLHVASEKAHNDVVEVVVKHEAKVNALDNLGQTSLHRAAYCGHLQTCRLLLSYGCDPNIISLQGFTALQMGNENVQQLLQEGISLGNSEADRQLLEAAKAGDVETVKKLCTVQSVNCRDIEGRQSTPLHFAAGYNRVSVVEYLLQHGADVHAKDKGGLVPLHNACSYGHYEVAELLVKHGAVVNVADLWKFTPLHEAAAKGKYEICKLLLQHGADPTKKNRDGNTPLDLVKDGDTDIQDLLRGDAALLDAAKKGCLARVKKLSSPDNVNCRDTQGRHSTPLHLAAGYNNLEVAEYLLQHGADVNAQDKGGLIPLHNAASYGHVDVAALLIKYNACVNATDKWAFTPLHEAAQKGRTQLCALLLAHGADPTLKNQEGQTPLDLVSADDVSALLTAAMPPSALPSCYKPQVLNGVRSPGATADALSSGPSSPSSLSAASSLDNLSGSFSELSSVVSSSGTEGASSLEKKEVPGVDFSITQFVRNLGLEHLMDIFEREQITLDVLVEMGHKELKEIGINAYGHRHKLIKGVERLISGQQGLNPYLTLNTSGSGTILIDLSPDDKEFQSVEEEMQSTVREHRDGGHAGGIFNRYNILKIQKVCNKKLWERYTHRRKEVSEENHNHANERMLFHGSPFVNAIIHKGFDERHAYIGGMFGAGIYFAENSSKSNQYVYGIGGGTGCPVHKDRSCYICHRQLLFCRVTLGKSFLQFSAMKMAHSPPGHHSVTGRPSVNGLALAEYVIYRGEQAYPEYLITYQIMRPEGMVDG
When answering, recall that pIC50 equals minus log10 of the concentration in mol/L, and write that number alone.

Q) Please indicate recorded pIC50 of `Cc1ccccc1-n1c(/C=C/c2nnc(-c3ccc(C#N)cc3)o2)nnc1-c1ccc(S(C)(=O)=O)cn1` measured with Poly [ADP-ribose] polymerase tankyrase-2 (Homo sapiens, UniProt Q9H2K2).
A) 7.60

Q) Please indicate recorded pIC50 of `COc1ccc(C2(CNC(=O)c3ccc(NC(=O)c4ccco4)cc3)CCOCC2)cc1` measured with Poly [ADP-ribose] polymerase tankyrase-2 (Homo sapiens, UniProt Q9H2K2).
A) 6.07
